Test system: 786-0 renal
Experiment: NCI tumour cell line growth inhibition, 48 h
readout-label: TGI (µM)
Give just the numeric value; µM need not be written.

Examples from the recorded data:
{"compound": "CNc1ccc2nc(-c3ccc(OC(=O)N(C)C)cc3)cn2c1", "value-units": "µM", "measured-number": 27.6}
{"compound": "CCCC/C(=N\\N=C(N)N)c1ccc(F)cc1", "value-units": "µM", "measured-number": 16.2}
{"compound": "CC[C@@]1(OC(=O)CN)C(=O)OCc2c1cc1n(c2=O)Cc2cc3cc(N)ccc3nc2-1", "value-units": "µM", "measured-number": 0.0409}
{"compound": "NC(N)=N/N=C(\\c1ccc(Cl)cc1)C1CC1", "value-units": "µM", "measured-number": 32.5}
{"compound": "O=C1c2cccnc2C(=O)c2c1c(C(=O)OCCCN1CCOCC1)c1ccccn21", "value-units": "µM", "measured-number": 0.0403}

// switching to the query compound
Inquiry: Respond only with TGI recorded for Oc1ccc(-c2c3c(nc4c2CCc2ccc(Br)cc2-4)-c2cc(Br)ccc2CC3)cc1
Reply text: 37.4
